# credit: patent US20250051332A1

molecular target: μOR (Homo sapiens); construct: host or cells: CHO-K1; experiment: cell-based; format: cell-based; conditions: read-out: μOR cAMP inhibition Emax ± SEM (%)
Sequence (P35372 whole entry): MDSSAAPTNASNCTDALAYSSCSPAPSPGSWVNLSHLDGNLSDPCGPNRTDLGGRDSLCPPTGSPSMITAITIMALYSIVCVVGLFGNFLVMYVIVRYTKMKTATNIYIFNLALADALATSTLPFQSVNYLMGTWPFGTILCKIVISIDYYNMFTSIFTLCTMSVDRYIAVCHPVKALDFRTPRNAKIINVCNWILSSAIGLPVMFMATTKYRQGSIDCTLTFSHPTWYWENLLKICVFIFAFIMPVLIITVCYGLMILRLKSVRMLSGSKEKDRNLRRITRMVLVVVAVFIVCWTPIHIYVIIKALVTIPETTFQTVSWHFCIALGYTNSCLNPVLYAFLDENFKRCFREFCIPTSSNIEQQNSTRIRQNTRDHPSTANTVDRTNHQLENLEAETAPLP
reportedEndpoint: Emax

Examples from the recorded data:
| compound | Emax |
| --- | --- |
| C/C=C1/C[N+]2(Cc3ccccc3)CC[C@]34C(=C(C(=O)OC)[C@H]1C[C@@H]32)Nc1ccccc14 (stereo partly drawn) | 112% |
| C/C=C1/CN2CC[C@]34C(=C(C(=O)OC)[C@H]1C[C@H]23)Nc1ccc(-c2ccoc2)cc14 | 99% |

Problem: Which Emax value is on record for C=CC[N+]12CCC34C(=C(C(=O)OC)C(CC31)C(=CC)C2)Nc1ccc(Br)cc14 (stereo not drawn) ?
Result: < 10%
